- procedure-summary: Tmax in albino Wistar rat at 10 mg/kg, po
- Format: ADME, organism-based
- Design: dose 10 mg/kg, route oral
- measurement-conditions: in vivo
measured-attribute: Tmax
State the value, then name its unit.

[ask] Suppose we examine the compound CC(C)(C)n1nnnc1C(c1cccc(Nc2ccnc3cc(Cl)ccc23)c1)N1CCCC1 (stereo unspecified) ; what Tmax value has been reported?
[reply] 15 min

###

Entries below carry reported pIC50 on Cytochrome P450 1A2 (Homo sapiens).
Sequence (P05177 whole entry): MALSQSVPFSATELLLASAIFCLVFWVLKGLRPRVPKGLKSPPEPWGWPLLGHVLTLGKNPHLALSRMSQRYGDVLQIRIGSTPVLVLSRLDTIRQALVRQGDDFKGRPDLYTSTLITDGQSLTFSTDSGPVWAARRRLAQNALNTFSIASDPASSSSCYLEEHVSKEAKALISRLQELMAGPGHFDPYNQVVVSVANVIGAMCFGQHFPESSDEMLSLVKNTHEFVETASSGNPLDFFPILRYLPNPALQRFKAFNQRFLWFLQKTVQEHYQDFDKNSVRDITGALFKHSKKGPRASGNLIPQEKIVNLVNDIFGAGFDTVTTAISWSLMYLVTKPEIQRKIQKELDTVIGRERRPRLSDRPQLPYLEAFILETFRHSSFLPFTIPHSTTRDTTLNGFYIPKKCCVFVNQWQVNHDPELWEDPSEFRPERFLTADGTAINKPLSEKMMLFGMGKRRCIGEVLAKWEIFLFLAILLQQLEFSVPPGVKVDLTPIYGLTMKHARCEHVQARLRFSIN
# pIC50 is unitless: minus log10 of the molar concentration; print number only

>>> print(df.to_string())
                                   molecule  numeric_result
0  CCN(CC)C(c1cccc(Nc2ccnc3cc(Cl)ccc23)c1)c1nnnn1C(C)(C)C (configuration not stated)            5.36

The record that follows has no pIC50 shown yet.
[ask] # lookup: pIC50 of CC(C)(C)n1nnnc1C(c1cccc(Nc2ccnc3cc(Cl)ccc23)c1)N1CCCC1 (configuration not stated)
[reply] 5.60

###

- procedure-summary: AUC (infinity) in albino Wistar rat at 1 mg/kg, iv
- Format: ADME, organism-based
- Set-up: time infinity, dose 1 mg/kg, route intravenous
- measurement-conditions: plasma
measured-attribute: AUC(0-inf) (ng·h/mL)
Give the quantity in ng·h/mL, number only.

[ask] So what does the record say about AUC(0-inf) for CC(C)(C)n1nnnc1C(c1cccc(Nc2ccnc3cc(Cl)ccc23)c1)N1CCCC1 (stereo unspecified) ?
[reply] 63.5

###

- procedure-summary: Clearance in albino Wistar rat at 1 mg/kg, iv
- Format: ADME, organism-based
- Parameters: dose 1 mg/kg, route intravenous
- measurement-conditions: in vivo
measured-attribute: clearance

[ask] Value lookup for clearance; key = CC(C)(C)n1nnnc1C(c1cccc(Nc2ccnc3cc(Cl)ccc23)c1)N1CCCC1 (stereo unspecified)
[reply] 278 mL/min/kg

###

- procedure-summary: Cmax in albino Wistar rat at 10 mg/kg, po
- Assay type: ADME, organism-based
- Parameters: dose 10 mg/kg, route oral
- measurement-conditions: in vivo
measured-attribute: Cmax (ng/mL)
Quick note: give the figure in ng/mL, leave out the unit.

[ask] Which Cmax value belongs to CC(C)(C)n1nnnc1C(c1cccc(Nc2ccnc3cc(Cl)ccc23)c1)N1CCCC1 (stereo unspecified) ?
[reply] 13.3

###

- procedure-summary: physchem
- measurement-conditions: phosphate buffered saline, pH 7.4
Reported solubility kinetic at 2 h values are given for each entry in this list.

Field: example entries. Status: answers known.
>>> print(df.to_string())
                                   compound         measured_attribute  result
0  CC(C)(C)n1nnnc1C(c1cccc(Nc2ccnc3cc(Cl)ccc23)c1)N1CCCCC1 (stereo not drawn)  solubility kinetic at 2 h  < 5 µM
1  CC(C)(C)n1nnnc1C(c1cccc(Nc2ccnc3cc(Cl)ccc23)c1)N1CCCC1 (stereo not drawn)  solubility kinetic at 2 h  < 5 µM

Next compound, solubility kinetic at 2 h to be filled in.
[ask] GET /values?readout=solubility kinetic at 2 h&item= CCN(CC)C(c1cccc(Nc2ccnc3cc(Cl)ccc23)c1)c1nnnn1C(C)(C)C (stereo not drawn)
[reply] < 5 µM
